Assay: Plasma pharmacokinetics after oral administration in mice
Settings: male, ICR, mouse, plasma, po, 6 mg/kg
# MRT inf per entry
Measurement Name: MRT inf (h)

1) COc1ccc2c3c(c4cc(OC)c(OC)cc4c2c1)CN1CCC[C@H]1C3.O=C(O)CC(O)(CC(=O)O)C(=O)O [Citrate, (+)-13a-(S)-deoxytylophorinine Citrate] | 2.29
2) COc1ccc2c3c(c4cc(OC)c(OC)cc4c2c1)CN1CCC[C@H]1C3 [(+)-13a-(S)-deoxytylophorinine, reference compound] | 0.8
3) COc1ccc2c3c(c4cc(OC)c(OC)cc4c2c1)CN1CCC[C@H]1C3.O=C(O)C(O)C(O)C(=O)O [Tartrate, (+)-13a-(S)-deoxytylophorinine Tartrate] | 1.63
4) COc1ccc2c3c(c4cc(OC)c(OC)cc4c2c1)CN1CCC[C@H]1C3.O=C(O)/C=C\C(=O)O [Maleate, (+)-13a-(S)-deoxytylophorinine Maleate] | 2.18

###

Test system: H22 tumor-bearing mice
Conditions: low dose × 7 d, intragastric once daily, equal moles: prototype 2.5, tartrate 3.53, maleate 3.30, citrate 3.95 mg/kg
Description: To determine the pharmacodynamic characters of 13a-(S)-deoxytylophorinine and its salts, the impact of these compounds to the tumor growth in H22 tumor-bearing mice was surveyed. Male Kunming mice were obtained from the Laboratory Animal Center, Academy of Military Medical Science. Body weight 18˜22 g. 6 animals per group, totally 10 groups, 60 animals. […] Four experimental samples were intragastric administered once daily 24 h after inoculation. […] The animal body weight was recorded every day.
Measurement Name: Body Weight(g) Initial (g⁻¹)

1) COc1ccc2c3c(c4cc(OC)c(OC)cc4c2c1)CN1CCC[C@H]1C3.O=C(O)CC(O)(CC(=O)O)C(=O)O [Citrate, (+)-13a-(S)-deoxytylophorinine Citrate] | 21.83
2) COc1ccc2c3c(c4cc(OC)c(OC)cc4c2c1)CN1CCC[C@H]1C3.O=C(O)/C=C\C(=O)O [Maleate, (+)-13a-(S)-deoxytylophorinine Maleate] | 22.50
3) COc1ccc2c3c(c4cc(OC)c(OC)cc4c2c1)CN1CCC[C@H]1C3 [(+)-13a-(S)-deoxytylophorinine, reference compound] | 23.00
